Assign composite z-score to each entry below.
# protocolDetails: binders of probe aFGF2 on microarray, primary screen, stem cell growth factor project, biochemical, small-molecule microarray, fluorescence 635/667 (AID 1067);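 also: measures binding of biotinylated aFGF2 protein to printed compounds on slides; z-score merges feature fluorescence and signal-to-noise across triplicate slides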
# experimentalConditions: higher = more signal
Give a plain numeric answer without units written out.

*Q* Requested field: composite z-score. Item: `CCN1C(=O)[C@H]2[C@H]3[C@H](O)[C@H](O)CC(=NOCC=C(C)CCC=C(C)C)[C@@H]3CC[C@H]2C1=O`
*A* -0.146

*Q* Returns the measured composite z-score for the input molecule. Input: `CCOC(=O)CCN1C(=O)[C@H]2[C@H]3[C@H](O)[C@H](O)CC(=NNC(=O)OCC)[C@H]3CC[C@H]2C1=O`
*A* -0.162

*Q* Look up composite z-score: `CC(C)(C)N1C(=O)[C@H]2[C@H]3[C@H](O)[C@H](O)CC(=NNC(=O)OCc4ccccc4)[C@@H]3CC[C@H]2C1=O`
*A* -0.136

*Q* Dear colleague, I am looking for the recorded composite z-score of the following molecule: CCOC(=O)[C@H](CC(C)C)NC(=O)CCC1CC(OC(=O)NCc2ccc3c(c2)OCO3)CC2(CCCC(COC(=O)NCc3ccccc3)O2)O1 (stereo not given in full)
*A* -0.0667

*Q* Entry `CCOC(=O)CCN1C(=O)[C@H]2[C@H]3[C@H](O)[C@H](O)CC(=NO[C@@H]4O[C@H](CO)[C@@H](O)[C@H](O)[C@H]4O)[C@H]3CC[C@H]2C1=O` has what composite z-score?
*A* 0.0395

*Q* Recorded composite z-score of CCOC(=O)[C@H](CC(C)C)NC(=O)CCC1CC(OC(=O)NCc2ccc3c(c2)OCO3)CC2(CCCC(COC(=O)NCCC(C)C)O2)O1 (stereo not given in full) , please.
*A* -0.119

*Q* Quick one: composite z-score for CCOC(=O)[C@H](Cc1ccccc1)NC(=O)CCC1CC(OC(=O)NCc2cccc3ccccc23)CC2(CCCC(COC(=O)NCc3ccc4c(c3)OCO4)O2)O1 (stereo not given in full) ?
*A* -0.0391

*Q* # query: composite z-score of entry CCC1=NOC(CCC2CC(OC(=O)NCc3cccc4c3OCO4)CC3(CCCC(COC(=O)NCCc4ccc(Cl)cc4)O3)O2)C1 (stereo not given)
*A* 0.0388

*Q* Item under review: `C[C@@H]1CC[C@H]2C(=O)N3[C@@H](CC[C@@H](C)[C@@H]3c3ccc(Br)cc3)C(=O)N2[C@H]1c1ccc(Br)cc1` . Reported composite z-score?
*A* -0.131

*Q* Consider the molecule CCOC(=O)[C@H](Cc1ccccc1)NC(=O)CCC1CC(OC(=O)NCc2ccc3c(c2)OCO3)CC2(CCCC(COC(=O)NCCOc3ccccc3)O2)O1 (stereo not given in full) and give its measured composite z-score.
*A* -0.051

*Q* Dear colleague, I am looking for the recorded composite z-score of the following molecule: `CCOC(=O)NN=C1C[C@@H](O)[C@@H](O)[C@@H]2[C@@H]3C(=O)N(CC)C(=O)[C@@H]3CC[C@H]12`
*A* -0.1

*Q* Data request, read-out composite z-score, for O=C1CCCC=C1C(O)C1CCCCC1 (stereo not given)
*A* -0.141

*Q* Bench note: what composite z-score did `CC(C)[C@H](NC(=O)OC(C)(C)C)[C@@H](O)CC(=O)C(C)(C)C` show?
*A* 0.0103

*Q* Find the recorded composite z-score belonging to `COc1cccc([C@H](O)Cn2cc(-c3ccc(CON=C(C)C)cc3)nn2)c1` and report it.
*A* -0.0138

*Q* # input molecule: `C[C@@H](c1ccccc1)N1C(=O)[C@H]2[C@H]3[C@H](O)[C@H](O)CC(=NOC[C@@H](O)COCc4ccco4)[C@H]3CC[C@H]2C1=O` ; wanted: its composite z-score
*A* -0.212
